Listed sequences paired with reported PBM E-score
- systemTested: Upc2 (UniProt Q12151)
- Sequence: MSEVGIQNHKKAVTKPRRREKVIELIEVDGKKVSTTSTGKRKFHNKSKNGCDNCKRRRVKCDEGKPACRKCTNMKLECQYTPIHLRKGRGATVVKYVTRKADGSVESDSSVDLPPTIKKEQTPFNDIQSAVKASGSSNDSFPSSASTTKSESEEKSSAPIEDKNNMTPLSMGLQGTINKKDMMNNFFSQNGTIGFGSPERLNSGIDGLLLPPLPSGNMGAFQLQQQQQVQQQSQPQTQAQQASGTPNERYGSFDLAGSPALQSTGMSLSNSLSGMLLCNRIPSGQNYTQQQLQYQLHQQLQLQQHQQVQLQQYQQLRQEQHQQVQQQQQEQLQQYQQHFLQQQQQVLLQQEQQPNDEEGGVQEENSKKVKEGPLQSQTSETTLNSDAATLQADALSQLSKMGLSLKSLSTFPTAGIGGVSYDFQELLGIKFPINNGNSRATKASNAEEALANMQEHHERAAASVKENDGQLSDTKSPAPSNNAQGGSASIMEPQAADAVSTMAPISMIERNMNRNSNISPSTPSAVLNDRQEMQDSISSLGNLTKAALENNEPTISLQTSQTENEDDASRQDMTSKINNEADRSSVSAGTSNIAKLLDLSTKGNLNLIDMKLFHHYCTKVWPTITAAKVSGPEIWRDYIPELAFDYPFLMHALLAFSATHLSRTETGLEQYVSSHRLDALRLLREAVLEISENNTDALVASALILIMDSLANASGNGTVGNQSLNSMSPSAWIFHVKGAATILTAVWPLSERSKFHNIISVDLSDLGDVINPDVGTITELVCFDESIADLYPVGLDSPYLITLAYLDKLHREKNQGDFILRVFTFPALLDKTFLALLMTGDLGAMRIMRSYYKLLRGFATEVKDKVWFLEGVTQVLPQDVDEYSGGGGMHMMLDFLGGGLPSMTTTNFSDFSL
- runDescription: PBM E-score (8-mer binding enrichment) (E-score (-0.5 to 0.5)); higher = stronger / more preferred TF binding
- runParameters: protein concentration: 200 nM; construct: GST-full length
In all, about 33,000 sequences were measured (“E-score (-0.5 to 0.5)”: median about -0.043, highest 2% from about 0.37 on). The entries come from a sample that favours the highest values as a whole.
A bare number is all that is needed in reply.

Sample answers from the record:
[[record]]
macromoleculesequence = "ACACCGAG"
assaymetric = "PBM E-score"
val = -0.024

[[record]]
macromoleculesequence = "AAGAGACG"
assaymetric = "PBM E-score"
val = 0.102

[[record]]
macromoleculesequence = "GCCCTTTA"
assaymetric = "PBM E-score"
val = -0.0758

[[record]]
macromoleculesequence = "GAATCGTC"
assaymetric = "PBM E-score"
val = 0.052

[[record]]
macromoleculesequence = "AAATGAAC"
assaymetric = "PBM E-score"
val = 0.118

[[record]]
macromoleculesequence = "GCGTACAA"
assaymetric = "PBM E-score"
val = 0.324

[[record]]
macromoleculesequence = "ATGCACCA"
assaymetric = "PBM E-score"
val = -0.188

[[record]]
macromoleculesequence = "ACGAGAAT"
assaymetric = "PBM E-score"
val = 0.396


What value of PBM E-score has been recorded for this entry: AACACAGA
-0.00201

Repeat for the following sequence: AAGCTACA
-0.125

Repeat for the following sequence: GGTTGTAC
0.154

Repeat for the following sequence: CCGGAGAC
-0.0181

====

Listed sequences paired with reported PBM E-score
- systemTested: Upc2 (UniProt Q12151)
- Sequence: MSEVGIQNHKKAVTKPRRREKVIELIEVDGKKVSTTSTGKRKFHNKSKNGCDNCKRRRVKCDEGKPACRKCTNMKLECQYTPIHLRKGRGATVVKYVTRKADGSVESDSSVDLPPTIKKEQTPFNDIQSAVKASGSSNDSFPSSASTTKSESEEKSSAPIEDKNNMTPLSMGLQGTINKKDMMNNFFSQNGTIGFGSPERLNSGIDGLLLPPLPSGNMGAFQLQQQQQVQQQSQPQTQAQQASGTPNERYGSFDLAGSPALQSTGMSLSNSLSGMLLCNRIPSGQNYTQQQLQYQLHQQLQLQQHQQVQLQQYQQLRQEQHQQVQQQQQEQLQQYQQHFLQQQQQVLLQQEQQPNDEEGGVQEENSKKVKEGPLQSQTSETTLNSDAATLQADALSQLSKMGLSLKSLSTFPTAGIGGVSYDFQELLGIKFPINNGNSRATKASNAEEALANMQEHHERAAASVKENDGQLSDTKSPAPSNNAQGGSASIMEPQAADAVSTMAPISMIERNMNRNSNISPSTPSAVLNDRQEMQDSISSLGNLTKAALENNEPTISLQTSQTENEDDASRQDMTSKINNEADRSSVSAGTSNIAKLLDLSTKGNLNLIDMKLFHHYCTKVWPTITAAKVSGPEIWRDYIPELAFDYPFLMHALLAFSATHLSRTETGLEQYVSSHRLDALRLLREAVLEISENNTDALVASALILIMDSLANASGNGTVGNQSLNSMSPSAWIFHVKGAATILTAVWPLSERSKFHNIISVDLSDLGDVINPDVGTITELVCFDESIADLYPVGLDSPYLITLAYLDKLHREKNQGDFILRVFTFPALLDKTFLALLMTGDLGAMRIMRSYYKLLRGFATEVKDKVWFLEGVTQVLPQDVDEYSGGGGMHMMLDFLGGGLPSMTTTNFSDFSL
- runDescription: PBM E-score (8-mer binding enrichment) (E-score (-0.5 to 0.5)); higher = stronger / more preferred TF binding
- runParameters: protein concentration: 200 nM; construct: GST-full length
The full ranking holds about 33,000 sequences; the median of “E-score (-0.5 to 0.5)” is about -0.043, and the highest 2% start at about 0.37. The sample as a whole holds a higher share of the highest values than the screen did.
A bare number is all that is needed in reply.

Sample answers from the record:
[[record]]
macromoleculesequence = "CATACGAC"
assaymetric = "PBM E-score"
val = 0.466

[[record]]
macromoleculesequence = "GATACGGC"
assaymetric = "PBM E-score"
val = 0.324

[[record]]
macromoleculesequence = "CATACGTA"
assaymetric = "PBM E-score"
val = 0.315

[[record]]
macromoleculesequence = "AACGATTA"
assaymetric = "PBM E-score"
val = 0.364


What value of PBM E-score has been recorded for this entry: AGAAGAAG
-0.0336

Repeat for the following sequence: ACCCTCTC
-0.197

Repeat for the following sequence: AGCGATTC
0.181

Repeat for the following sequence: CATACGCC
0.307

Repeat for the following sequence: TCAGCGGA
-0.0114

====

Listed sequences paired with reported PBM E-score
- systemTested: Upc2 (UniProt Q12151)
- Sequence: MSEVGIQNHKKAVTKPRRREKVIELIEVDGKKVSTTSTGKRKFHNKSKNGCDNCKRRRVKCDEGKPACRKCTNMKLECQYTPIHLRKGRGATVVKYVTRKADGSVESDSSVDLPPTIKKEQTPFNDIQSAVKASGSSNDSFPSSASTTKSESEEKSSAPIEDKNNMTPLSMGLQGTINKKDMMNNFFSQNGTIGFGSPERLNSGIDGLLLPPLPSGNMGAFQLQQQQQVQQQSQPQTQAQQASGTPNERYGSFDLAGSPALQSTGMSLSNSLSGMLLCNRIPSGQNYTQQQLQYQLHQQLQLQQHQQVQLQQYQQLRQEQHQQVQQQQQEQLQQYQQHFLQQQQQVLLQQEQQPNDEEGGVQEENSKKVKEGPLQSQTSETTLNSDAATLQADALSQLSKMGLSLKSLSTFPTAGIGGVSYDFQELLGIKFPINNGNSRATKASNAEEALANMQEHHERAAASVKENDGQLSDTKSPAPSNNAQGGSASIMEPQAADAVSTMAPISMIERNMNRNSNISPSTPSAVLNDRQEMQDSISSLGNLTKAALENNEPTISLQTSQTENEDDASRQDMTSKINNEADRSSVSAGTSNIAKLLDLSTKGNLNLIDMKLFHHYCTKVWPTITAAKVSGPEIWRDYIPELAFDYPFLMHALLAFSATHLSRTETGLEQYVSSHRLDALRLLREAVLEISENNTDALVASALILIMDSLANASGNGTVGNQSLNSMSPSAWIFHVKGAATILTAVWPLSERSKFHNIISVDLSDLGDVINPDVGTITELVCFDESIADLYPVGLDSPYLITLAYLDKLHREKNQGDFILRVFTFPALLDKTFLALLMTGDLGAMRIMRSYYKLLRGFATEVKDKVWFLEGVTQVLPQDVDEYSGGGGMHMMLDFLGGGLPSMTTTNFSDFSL
- runDescription: PBM E-score (8-mer binding enrichment) (E-score (-0.5 to 0.5)); higher = stronger / more preferred TF binding
- runParameters: protein concentration: 200 nM; construct: GST-full length
Whole data set: some 33,000 sequences, median “E-score (-0.5 to 0.5)” near -0.043, cut for the highest 2% near 0.37. This is one part of a sample in which the highest values are shown more often than they occur.
A bare number is all that is needed in reply.

[[record]]
macromoleculesequence = "GGCGTTAA"
val = 0.161

[[record]]
macromoleculesequence = "GGAACGAC"
val = 0.453

[[record]]
macromoleculesequence = "AGTTATAC"
val = 0.333

[[record]]
macromoleculesequence = "TGCGTACA"
val = 0.318

[[record]]
macromoleculesequence = "GACAACCC"
val = 0.0735

[[record]]
macromoleculesequence = "TCCGTAGA"
val = -0.0263

[[record]]
macromoleculesequence = "ACCTTGGG"
val = -0.219

[[record]]
macromoleculesequence = "AAAGGCTA"
val = -0.173


What value of PBM E-score has been recorded for this entry: ATATACGA
0.492
